Parameter IC50, tested on mammalian prolyl-4-hydroxylase (Homo sapiens, UniProt P13674), listed per item.
Sequence (P13674 18-534): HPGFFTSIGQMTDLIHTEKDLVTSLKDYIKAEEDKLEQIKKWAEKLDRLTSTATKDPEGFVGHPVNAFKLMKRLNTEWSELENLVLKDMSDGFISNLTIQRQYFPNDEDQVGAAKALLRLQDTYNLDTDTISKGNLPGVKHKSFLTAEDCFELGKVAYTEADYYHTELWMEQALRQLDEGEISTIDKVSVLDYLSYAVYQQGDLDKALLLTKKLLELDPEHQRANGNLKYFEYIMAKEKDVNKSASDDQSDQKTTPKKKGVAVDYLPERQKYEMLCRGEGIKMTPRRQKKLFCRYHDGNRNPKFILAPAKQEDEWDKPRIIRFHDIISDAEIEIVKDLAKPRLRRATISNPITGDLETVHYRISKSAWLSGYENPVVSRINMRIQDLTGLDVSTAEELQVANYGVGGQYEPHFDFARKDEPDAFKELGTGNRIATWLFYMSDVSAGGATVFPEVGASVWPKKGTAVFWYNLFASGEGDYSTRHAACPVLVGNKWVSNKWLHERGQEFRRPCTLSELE
Sequence (P07237 18-508 partner): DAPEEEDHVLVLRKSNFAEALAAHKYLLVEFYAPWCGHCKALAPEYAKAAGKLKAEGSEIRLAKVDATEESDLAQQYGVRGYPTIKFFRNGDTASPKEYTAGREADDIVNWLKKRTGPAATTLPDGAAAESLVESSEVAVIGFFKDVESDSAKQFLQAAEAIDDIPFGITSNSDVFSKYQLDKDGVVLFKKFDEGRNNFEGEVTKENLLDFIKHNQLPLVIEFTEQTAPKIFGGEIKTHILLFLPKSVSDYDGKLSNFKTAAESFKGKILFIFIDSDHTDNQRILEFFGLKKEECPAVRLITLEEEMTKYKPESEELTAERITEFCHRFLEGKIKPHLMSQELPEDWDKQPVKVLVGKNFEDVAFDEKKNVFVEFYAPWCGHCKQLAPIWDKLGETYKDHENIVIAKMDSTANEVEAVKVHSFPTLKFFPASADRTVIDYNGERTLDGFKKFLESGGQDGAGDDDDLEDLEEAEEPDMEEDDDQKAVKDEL
Your answer is read as µM, so omit the unit and give the number.

>  <compound>
CCCCCCCC/C=C\CCCCCCCC(=O)N1CCC[C@H]1C(=O)O [Example 1, 1-(1-oxo-9Z-octadecenyl)proline]

>  <targetEntity>
mammalian prolyl-4-hydroxylase (Homo sapiens, UniProt P13674)

>  <endpointName>
IC50

>  <unitDescriptor>
µM

>  <measurement>
4.4

$$$$

# input for lookup
// map CCCCCCCC/C=C\CCCCCCCC(=O)N1CCC(C(=O)O)CC1 [Example 3] to recorded IC50 (system: mammalian prolyl-4-hydroxylase (Homo sapiens, UniProt P13674))
9
